So I've got IC50 readings for human PKCθ full length enzyme (Homo sapiens, UniProt Q04759), take a look.
measured-parameter: IC50 (nM)

Examples from the recorded data:
Item Cc1ncc(C#N)c(Nc2ccc3[nH]ccc3c2C)c1-c1ccc(OCCNCc2ccccc2)cc1 [Example 39] has what recorded IC50?
73

Item CCOCCNCCOc1ccc(-c2c(C)ncc(C#N)c2Nc2ccc3[nH]ccc3c2C)cc1 [Example 19] has what recorded IC50?
46

Item COc1ccc(-c2c(C)ncc(C#N)c2Nc2ccc3[nH]ccc3c2C)cc1OC [Example 9] has what recorded IC50?
67

Item Cc1ncc(C#N)c(Nc2ccc3[nH]ccc3c2C)c1-c1ccc(OCCNCCCn2ccnc2)cc1 [Example 38] has what recorded IC50?
14

Item Cc1ncc(C#N)c(Nc2ccc3[nH]ccc3c2C)c1-c1ccc(OCCN2CCN(C)CC2)cc1 [Example 14] has what recorded IC50?
31

I = Cc1ncc(C#N)c(Nc2cccc3[nH]ccc23)c1-c1ccc(OCCCl)cc1 [Example 13]
II = Cc1ncc(C#N)c(Nc2ccc3[nH]ccc3c2C)c1-c1ccc(C=O)s1 [Example 69]
Between the entries labeled I and II , whose measured IC50 is lower? API: response body contains the label of the selected item.
II

I = Cc1ncc(C#N)c(Nc2ccc3[nH]ccc3c2)c1-c1cc2ccccc2o1 [Example 55]
II = Cc1ncc(C#N)c(Nc2ccc3[nH]ccc3c2)c1-c1ccccc1 [Example 50]
Between the entries labeled I and II , whose measured IC50 is lower? API: response body contains the label of the selected item.
I
(I: 26 nM, II: 50 nM)

P = COc1ccc(-c2c(C)ncc(C#N)c2Nc2ccc3[nH]ccc3c2)cc1 [Example 54]
Q = Cc1ncc(C#N)c(Nc2ccc3[nH]ccc3c2C)c1-c1ccc(CN2CCN(C)CC2)o1 [Example 68]
R = Cc1ncc(C#N)c(Nc2ccc3[nH]ccc3c2)c1-c1cccc(CN(C)C)c1 [Example 57]
S = Cc1ncc(C#N)c(Nc2ccc3[nH]ccc3c2C)c1-c1cc2cc(CN3CCN(C)CC3)ccc2o1 [Example 16]
Kindly order the items shown according to IC50, from the highest value down. # answer = labels listed in requested order
R, P, Q, S
(R: 87 nM, P: 41 nM, Q: 20 nM, S: 2.7 nM)

A = Cc1ncc(C#N)c(Nc2ccc3[nH]ccc3c2C)c1-c1ccc(OCCN2CCC(N3CCCCC3)CC2)cc1 [Example 27]
B = Cc1ncc(C#N)c(Nc2ccc3[nH]ccc3c2C)c1-c1ccc(OCCN2CCN(CCO)CC2)cc1 [Example 35]
C = Cc1ncc(C#N)c(Nc2ccc3[nH]ccc3c2C)c1-c1ccc(C=O)o1 [Example 67]
D = Cc1ncc(C#N)c(Nc2ccc3[nH]ccc3c2)c1-c1cccs1 [Example 65]
Kindly order the items shown according to IC50, from the highest value down. # answer = labels listed in requested order
D, B, A, C
